B1: 5KPH (parent)
chain: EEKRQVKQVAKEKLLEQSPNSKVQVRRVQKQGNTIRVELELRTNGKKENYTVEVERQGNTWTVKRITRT

variants of: B1; experiment: folding stability dG (cDNA display proteolysis); higher = more stable; settings: PBS, room temperature
Please go through the items and note down their folding stability dG.
Just the number please, in kJ/mol, no unit attached.

Query V23K yields folding stability dG of 5.72

Summary for this variant, E55I : folding stability dG is 17.2

# variant G58M ; its folding stability dG = 13.6

The recorded folding stability dG for V6Q is 11.6

Given item V28Y , the value recorded as its folding stability dG is 18.2

Data point: K11P ; folding stability dG = 8.39

folding stability dG reading for E38K : 15.5

So for K11W , the logged folding stability dG turned out to be 13.6

For Q8W the variant record lists folding stability dG as 10.7

So for K22E , the logged folding stability dG turned out to be 17.3

Looking up T60K , I see its folding stability dG listed as 16.7

The recorded folding stability dG for entry V37L equals 13.9

Query Q5T yields folding stability dG of 16.4

Value of measured folding stability dG for the entry L41P : 2.21

The variant identified as R36M registered its folding stability dG at 17.7

folding stability dG reported for this variant T34S : 15

Per the records, this variant ( R36L ) has folding stability dG equal to 18.1

Input E40T . Output folding stability dG: 17.3
